# Tested on: OATP1B3-expressing RKO cells
# condition: read-out: IC50 RKO B3
pIC50: −log10 of the molar value. Numbered stars: 1 amine (or outer) side, 2 acyl side, 3 side chain; on linkers, the order of the positions; unused ones are H or OH. Bridge positions count the residues as written; N and C are the ends. Square brackets hold non-standard residues; d marks the D form. Peptide text beside a SMILES is read from it. Adda = CO[C@@H](Cc1ccccc1)[C@@H](C)/C=C(C)/C=C/[C@H](N[*:1])[C@H](C)C(=O)[*:2]; dAsp(3S-Me) = C[C@H](C(=O)[*:3])[C@@H](N[*:1])C(=O)[*:2]; d(γGlu) = O=C(O)[C@@H](CCC(=O)[*:2])N[*:1]; NMeDha = C=C(NC)C(=O)O
Each entry below carries its reported pIC50.
readout-kind: pIC50

* C=C1C(=O)N[C@H](C)C(=O)N[C@@H](CC(C)C)C(=O)N[C@@H](C(=O)O)CC(=O)N[C@@H](CCCNC(=N)N)C(=O)N[C@@H](/C=C/C(C)=C/[C@H](C)[C@H](Cc2ccccc2)OC)[C@H](C)C(=O)N[C@@H](C(=O)O)CCC(=O)N1C [compound 2, [D-Asp^3]MC-LR] | 7.50
* C=C1C(=O)N[C@H](C)C(=O)N[C@@H](CCCNC(=N)N)C(=O)N[C@@H](C(=O)O)[C@H](C)C(=O)N[C@@H](Cc2ccccc2)C(=O)N[C@@H](/C=C/C(C)=C/[C@H](C)[C@H](Cc2ccccc2)OC)[C@H](C)C(=O)N[C@@H](C(=O)O)CCC(=O)N1C [compound 12, MC-RF] (F[Adda][d(γGlu)][NMeDha][dA]R[dAsp(3S-Me)]-OH; lactam N-7) | 8.47
* C/C=C1/NC(=O)CC[C@H](C(=O)O)NC(=O)[C@@H](C)[C@H](/C=C/C(C)=C/[C@H](C)[C@H](Cc2ccccc2)OC)NC(=O)[C@H](CCCNC(=N)N)NC(=O)C[C@H](C(=O)O)NC(=O)[C@H](Cc2ccc(O)cc2)NC(=O)[C@@H](C)NC1=O [compound 15, [D-Asp^3,(E)-Dhb^7]MC-YR] | 7.57

====

pIC50 overview
# Tested on: HeLa Control cells
# condition: read-out: IC50 HeLa Control
pIC50: −log10 of the molar value. Numbered stars: 1 amine (or outer) side, 2 acyl side, 3 side chain; on linkers, the order of the positions; unused ones are H or OH. Bridge positions count the residues as written; N and C are the ends. Square brackets hold non-standard residues; d marks the D form. Peptide text beside a SMILES is read from it. Adda = CO[C@@H](Cc1ccccc1)[C@@H](C)/C=C(C)/C=C/[C@H](N[*:1])[C@H](C)C(=O)[*:2]; dAsp(3S-Me) = C[C@H](C(=O)[*:3])[C@@H](N[*:1])C(=O)[*:2]; d(γGlu) = O=C(O)[C@@H](CCC(=O)[*:2])N[*:1]; NMeDha = C=C(NC)C(=O)O
readout-kind: pIC50

- C=C1C(=O)N[C@H](C)C(=O)N[C@@H](CC(C)C)C(=O)N[C@@H](C(=O)O)[C@H](C)C(=O)N[C@@H](Cc2ccc(O)cc2)C(=O)N[C@@H](/C=C/C(C)=C/[C@H](C)[C@H](Cc2ccccc2)OC)[C@H](C)C(=O)N[C@@H](C(=O)O)CCC(=O)N1C [compound 5, MC-LY] (Y[Adda][d(γGlu)][NMeDha][dA]L[dAsp(3S-Me)]-OH; lactam N-7): < 8.00
- C/C=C1/NC(=O)CC[C@H](C(=O)O)NC(=O)[C@@H](C)[C@H](/C=C/C(C)=C/[C@H](C)[C@H](Cc2ccccc2)OC)NC(=O)[C@H](Cc2ccc(O)cc2)NC(=O)C[C@H](C(=O)O)NC(=O)[C@H](CC(C)C)NC(=O)[C@@H](C)NC1=O [compound 6, [D-Asp^3,(E)-Dhb^7]MC-LY]: < 8.00
- C=C1C(=O)N[C@H](C)C(=O)N[C@@H](CC(C)C)C(=O)N[C@@H](C(=O)O)[C@H](C)C(=O)N[C@@H](CCCNC(=N)N)C(=O)N[C@@H](/C=C/C(C)=C/[C@H](C)[C@H](Cc2ccccc2)OC)[C@H](C)C(=O)N[C@@H](C(=O)O)CCC(=O)N1C [compound 1, MC-LR, reference compound] (R[Adda][d(γGlu)][NMeDha][dA]L[dAsp(3S-Me)]-OH; lactam N-7): < 6.00
- C=C1C(=O)N[C@H](C)C(=O)N[C@@H](Cc2ccc(O)cc2)C(=O)N[C@@H](C(=O)O)[C@H](C)C(=O)N[C@@H](Cc2ccc(O)cc2)C(=O)N[C@@H](/C=C/C(C)=C/[C@H](C)[C@H](Cc2ccccc2)OC)[C@H](C)C(=O)N[C@@H](C(=O)O)CCC(=O)N1C [compound 17, MC-YY] (Y[Adda][d(γGlu)][NMeDha][dA]Y[dAsp(3S-Me)]-OH; lactam N-7): 6.59
